Below, each entry is listed with its recorded EC50.
- System: PR8 (H1N1) influenza virus
- Assay type: cell-based
- Recorded Conditions: read-out: NA-EC50: 50% effective concentration determined by NA activity assay

{"Compound Smiles": "CC(C)=C1C/C=C(\\C)CC/C=C(\\C)CC1=O", "EC50 [µM]": 23.1}
{"Compound Smiles": "N#CC(=C(/N)Sc1ccccc1N)/C(C#N)=C(/N)Sc1ccccc1N", "EC50 [µM]": 12}
{"Compound Smiles": "O=C(O[C@@H]1Cc2c(O)cc(O)cc2O[C@@H]1c1cc(O)c(O)c(O)c1)c1cc(O)c(O)c(O)c1", "EC50 [µM]": 50.1}

---

- Tested on: IP-10
- Assay Summary: tissue or blood
- Assay type: cell-based, mouse
- Recorded Conditions: Mus musculus, 48 h, read-out: IP-10-EC50: 50% effective concentration determined by ELISA of IP-10
Structures can show the parent of a compound that is named as a salt.
Below, each entry is listed with its recorded EC50.
Readout Name: EC50 (µM)

{"Compound": "NC(=O)c1ncn([C@@H]2O[C@H](CO)[C@@H](O)[C@H]2O)n1 [Ribavirin, ribavirin]", "Readout Name": "EC50", "Value Measured": 21.8}
{"Compound": "CCN(CC)CCOC(=O)C(Cc1cccc2ccccc12)CC1CCCO1 (centres unmarked) [Nafronyl oxalate]", "Readout Name": "EC50", "Value Measured": 22.1}
